# assay.explanation: Ratio of drug concentration in brain to plasma of C57BL/6 mouse administered intraperitoneally and measured for 0.25 to 24 hrs
# Format: ADME
# experimental.conditions: time 0.25-24 hrs, route ip, read-out: BPR
measured.property: Kp
Just the number, please.

What value of Kp has been recorded for this entry: Cn1ccc2cc(-n3c(=O)[nH]c4sc5c(c4c3=O)CCCC5)ccc21
0.01

---

# assay.explanation: Half life in ip dosed C57BL/6 mouse
# Format: ADME, organism-based
# experimental.conditions: in vivo
measured.property: half-life (min)
Answer format: numeric, min implied, no suffix.

What value of half-life has been recorded for this entry: Cn1ccc2cc(-n3c(=O)[nH]c4sc5c(c4c3=O)CCCC5)ccc21
42

---

# system.under.test: 5-hydroxytryptamine receptor 2B (Homo sapiens)
# Sequence (P41595 whole entry): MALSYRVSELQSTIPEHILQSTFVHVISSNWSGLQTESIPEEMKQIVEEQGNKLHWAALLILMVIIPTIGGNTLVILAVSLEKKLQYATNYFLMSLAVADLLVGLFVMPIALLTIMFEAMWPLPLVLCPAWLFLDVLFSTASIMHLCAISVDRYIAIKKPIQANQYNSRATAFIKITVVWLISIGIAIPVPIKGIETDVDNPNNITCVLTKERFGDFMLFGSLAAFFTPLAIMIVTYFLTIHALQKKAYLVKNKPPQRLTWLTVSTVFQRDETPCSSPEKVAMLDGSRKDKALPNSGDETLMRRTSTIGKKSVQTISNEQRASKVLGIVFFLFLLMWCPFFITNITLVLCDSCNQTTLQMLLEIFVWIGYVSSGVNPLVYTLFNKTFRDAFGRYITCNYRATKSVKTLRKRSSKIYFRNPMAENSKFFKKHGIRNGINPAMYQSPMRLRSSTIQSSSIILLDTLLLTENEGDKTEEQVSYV
# assay.explanation: Agonist activity at 5-HT2B receptor (unknown origin) assessed as stimulation of intracellular calcium level by calcium mobilization assay
# Assay type: functional, cell-based
measured.property: pEC50
Answer as the number alone; pEC50 is minus log10 of concentration in mol/L.

What value of pEC50 has been recorded for this entry: C[C@H](N)Cc1cccc(C(F)(F)F)c1 [NORDEXFENFLURAMINE]
7.64

---

# assay.explanation: Cmax in ip dosed C57BL/6 mouse
# Type: ADME, organism-based
# Design: route ip
# experimental.conditions: in vivo
measured.property: Cmax (µg/mL)
Answer format: numeric, µg/mL implied, no suffix.

What value of Cmax has been recorded for this entry: Cn1ccc2cc(-n3c(=O)[nH]c4sc5c(c4c3=O)CCCC5)ccc21
43

---

# system.under.test: 5-hydroxytryptamine receptor 2B (Homo sapiens)
# assay.explanation: Agonist activity at 5-HT2B receptor (unknown origin) assessed as stimulation of […] by calcium mobilization assay
# Format: functional
measured.property: pEC50
Answer as the number alone; pEC50 is minus log10 of concentration in mol/L.

What value of pEC50 has been recorded for this entry: C[C@H](N)Cc1cccc(C(F)(F)F)c1 [NORDEXFENFLURAMINE]
7.64
